- test-target: ATP-dependent translocase ABCB1 (Homo sapiens)
- Sequence (P08183 whole entry): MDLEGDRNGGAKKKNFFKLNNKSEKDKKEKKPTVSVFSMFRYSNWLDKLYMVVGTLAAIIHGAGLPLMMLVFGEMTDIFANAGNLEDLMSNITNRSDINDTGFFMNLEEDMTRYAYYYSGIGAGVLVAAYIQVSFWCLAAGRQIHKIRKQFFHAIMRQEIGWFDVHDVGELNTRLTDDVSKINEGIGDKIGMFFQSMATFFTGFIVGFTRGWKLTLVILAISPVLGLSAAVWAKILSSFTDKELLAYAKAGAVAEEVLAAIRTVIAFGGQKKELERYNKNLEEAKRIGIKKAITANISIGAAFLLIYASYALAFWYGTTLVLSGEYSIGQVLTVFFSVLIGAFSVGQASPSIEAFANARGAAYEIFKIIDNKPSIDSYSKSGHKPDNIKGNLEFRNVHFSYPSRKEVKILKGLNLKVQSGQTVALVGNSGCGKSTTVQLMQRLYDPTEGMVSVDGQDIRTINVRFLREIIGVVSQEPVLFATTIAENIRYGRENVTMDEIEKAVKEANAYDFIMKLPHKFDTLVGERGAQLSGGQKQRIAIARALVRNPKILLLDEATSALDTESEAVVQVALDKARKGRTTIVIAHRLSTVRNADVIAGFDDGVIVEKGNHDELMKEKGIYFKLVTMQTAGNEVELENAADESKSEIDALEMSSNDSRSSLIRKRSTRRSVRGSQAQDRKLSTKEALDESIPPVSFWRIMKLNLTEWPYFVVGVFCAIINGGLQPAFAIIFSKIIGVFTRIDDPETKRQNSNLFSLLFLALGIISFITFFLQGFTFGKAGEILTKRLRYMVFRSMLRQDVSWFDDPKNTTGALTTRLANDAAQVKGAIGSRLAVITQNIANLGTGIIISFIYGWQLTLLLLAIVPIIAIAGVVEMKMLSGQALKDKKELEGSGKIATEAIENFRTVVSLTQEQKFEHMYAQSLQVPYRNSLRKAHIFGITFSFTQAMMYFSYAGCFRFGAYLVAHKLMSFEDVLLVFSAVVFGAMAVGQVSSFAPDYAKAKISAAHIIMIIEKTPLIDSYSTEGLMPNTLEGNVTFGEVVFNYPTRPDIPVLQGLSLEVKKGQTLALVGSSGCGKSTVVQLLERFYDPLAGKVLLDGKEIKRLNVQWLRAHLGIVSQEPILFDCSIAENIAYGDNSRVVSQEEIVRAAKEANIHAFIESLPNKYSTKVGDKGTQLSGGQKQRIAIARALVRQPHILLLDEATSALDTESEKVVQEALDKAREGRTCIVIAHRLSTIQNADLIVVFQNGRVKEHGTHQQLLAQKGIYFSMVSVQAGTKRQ
- procedure-summary: Inhibition of ABCB1 in human Caco-2 cells assessed as ATPase activation at 100 uM after 2 hrs
- Assay type: cell-based
- experimental-parameters: caco-2, 2 h
measured-attribute: Activity

Take a look at these entries with their results.
COc1cccc(CCc2ccccc2OCCCN2CCc3ccccc3C2)c1
Not Active
COc1cccc(CCc2ccccc2OCCCCCN2CCN(c3cccc(Cl)c3)CC2)c1
Not Active
COc1cccc(CCc2ccccc2OCCCCCN2CCN(C)CC2)c1
Not Active
COc1cccc(CCc2ccccc2OCCCN2CCc3cc(OC)c(OC)cc3C2)c1
Not Active
COc1cccc(CCc2ccccc2OCCCCN2CCN(c3ncccn3)CC2)c1
Not Active

Okay, next one:
Asked: Dear colleague, I am looking for the recorded Activity of the following compound: COc1cccc(CCc2ccccc2OCCCCN2CCN(c3cccc(C(F)(F)F)c3)CC2)c1
Given back: Not Active

====

# inhibition listing for each entry below
- test-target: 5-hydroxytryptamine receptor 1A (Homo sapiens) (UniProt P08908)
- Sequence (P08908 whole entry): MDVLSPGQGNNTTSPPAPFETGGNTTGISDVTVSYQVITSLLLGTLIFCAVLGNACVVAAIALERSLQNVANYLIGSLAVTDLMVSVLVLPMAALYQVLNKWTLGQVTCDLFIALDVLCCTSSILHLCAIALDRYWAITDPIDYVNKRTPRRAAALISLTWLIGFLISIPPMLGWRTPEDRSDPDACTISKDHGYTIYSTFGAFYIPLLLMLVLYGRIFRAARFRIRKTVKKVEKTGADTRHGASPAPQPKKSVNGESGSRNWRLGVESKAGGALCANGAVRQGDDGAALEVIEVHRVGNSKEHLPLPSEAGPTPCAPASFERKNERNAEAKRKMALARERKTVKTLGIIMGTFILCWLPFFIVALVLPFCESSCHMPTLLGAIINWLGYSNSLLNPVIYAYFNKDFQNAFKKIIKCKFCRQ
- procedure-summary: Displacement of [3H]8-OH-DPAT from human cloned 5-HT1A receptor expressed in human HeLa cells at 10 uM
- Format: cell-based
Output should be the measured figure followed by the unit it is expressed in.

Some entries whose results are on file:
COc1cccc(CCc2ccccc2OCCCCN2CCc3cc(OC)c(OC)cc3C2)c1
18%
COc1cccc(CCc2ccccc2OCCCCCN2CCN(C)CC2)c1
24%
COc1cccc(CCc2ccccc2OCCCN2CCN(C)CC2)c1
40%
COc1cccc(CCc2ccccc2OCCCCCN2CCN(c3ncccn3)CC2)c1
38%

// switching to the query compound
Asked: Record COc1cccc(CCc2ccccc2OCCCCCN2CCc3ccccc3C2)c1 : what is its inhibition with 5-hydroxytryptamine receptor 1A (Homo sapiens) (UniProt P08908)?
Given back: 15%

====

Measured Ki by item
- test-target: 5-hydroxytryptamine receptor 1A (Homo sapiens)
- Sequence (P08908 whole entry): as above

Asked: Report Ki for COc1cccc(CCc2ccccc2OCCN2CCc3ccccc3C2)c1 please.
Given back: 1.31 µM

Asked: Repeat for the following compound: COc1cccc(CCc2ccccc2OCCCN2CCc3cc(OC)c(OC)cc3C2)c1
Given back: > 5 µM

Asked: Another compound: COc1cccc(CCc2ccccc2OCCCN2CCN(c3ccc(F)cc3)CC2)c1
Given back: 0.8 µM

Asked: // next record COc1cccc(CCc2ccccc2OCCCN2CCN(C)CC2)c1
Given back: > 5 µM

Asked: And the next one, COc1cccc(CCc2ccccc2OCCCCN2CCN(c3ccc(F)cc3)CC2)c1 ?
Given back: > 5 µM

Asked: Please give the result for COc1cccc(CCc2ccccc2OCCCCN2CCN(c3cccc(C(F)(F)F)c3)CC2)c1 too.
Given back: > 5 µM

Asked: # iterate: COc1cccc(CCc2ccccc2OCCCCCN2CCc3cc(OC)c(OC)cc3C2)c1
Given back: > 5 µM

Asked: Again, but for COc1cccc(CCc2ccccc2OCCCCN2CCc3cc(OC)c(OC)cc3C2)c1
Given back: > 5 µM

Asked: Continue with COc1cccc(CCc2ccccc2OCCN2CCN(C)CC2)c1
Given back: > 5 µM

Asked: And COc1cccc(CCc2ccccc2OCCCCCN2CCN(c3ncccn3)CC2)c1 ?
Given back: > 5 µM

====

- test-target: UniProtKB P08183
- procedure-summary: Activation of ABCB1 in human Caco-2 cells assessed as ATPase activation at 100 uM after 2 hrs
Measured activation at 2 h, 100 µM by item
Write the value in % as a bare number.

Asked: Looking for the measured activation at 2 h, 100 µM of COc1cccc(CCc2ccccc2OCCCN2CCN(c3ccc(F)cc3)CC2)c1 , can you help?
Given back: 38

Asked: Here is the next molecule: COc1cccc(CCc2ccccc2OCCN2CCc3cc(OC)c(OC)cc3C2)c1
Given back: 55

Asked: Follow-up item: COc1cccc(CCc2ccccc2OCCCN2CCN(c3ccccc3OC)CC2)c1
Given back: 20

Asked: Cool, now COc1cccc(CCc2ccccc2OCCCCCN2CCN(c3ccccc3OC)CC2)c1
Given back: 15

// provenance: ChEMBL document CHEMBL1140844
